- SYSTEM_NAME: T1, thrombin-activated EphA2 (endogenous, from lysate of HUVECs stimulated with 1 U/ml thrombin for 5 mins) (human, UniProt P29317 24-976, tyrosine phosphorylated after thrombin stimulation (sites not given))
- T1 construct: Endogenous EphA2 in a HUVEC lysate, detected on the array with a biotinylated anti-human EphA2 antibody; No signal peptide limits are stated
- METHOD_DESCRIPTION: SH2 domain array with thrombin-stimulated HUVEC lysate, anti-EphA2 detection
QUANTITY_KIND: binding result

{"BINDER": "SH2 domain of RaLP (other, UniProt Q6S5L8 526-617, looked up, domain: SH2 domain) CYHGKLSRKAAESLLVKDGDFLVRESATSPGQYVLSGLQGGQAKHLLLVDPEGKVRTKDHVFDNVGHLIRYHMDNSLPIISSGSEVSLKQPV", "VAL": "no binding"}
{"BINDER": "SH2 domain of TNS (other, UniProt Q9HBL0 1567-1676, looked up, domain: SH2 domain) WYKPEISREQAIALLKDQEPGAFIIRDSHSFRGAYGLAMKVSSPPPTIMQQNKKGDMTHELVRHFLIETGPRGVKLKGCPNEPNFGSLSALVYQHSIIPLALPCKLVIPN", "VAL": "no binding"}
{"BINDER": "SH2 domain of Nck2 (other, UniProt O43639 285-380, looked up, domain: SH2 domain) WYYGNVTRHQAECALNERGVEGDFLIRDSESSPSDFSVSLKASGKNKHFKVQLVDNVYCIGQRRFHTMDELVEHYKKAPIFTSEHGEKLYLVRALQ", "VAL": "no binding"}
{"BINDER": "SH2 domain of Grap (other, UniProt Q13588 60-154, looked up, domain: SH2 domain) WYSGRISRQLAEEILMKRNHLGAFLIRESESSPGEFSVSVNYGDQVQHFKVLREASGKYFLWEEKFNSLNELVDFYRTTTIAKKRQIFLRDEEPL", "VAL": "no binding"}
{"BINDER": "SH2 domain of SHC1 (other, UniProt P29353 488-579, looked up, domain: SH2 domain) WFHGKLSRREAEALLQLNGDFLVRESTTTPGQYVLTGLQSGQPKHLLLVDPEGVVRTKDHRFESVSHLISYHMDNHLPIISAGSELCLQQPV", "VAL": "no binding"}
{"BINDER": "SH2 domain of Grb14 (other, UniProt Q14449 439-535, looked up, domain: SH2 domain) WFHHKISRDEAQRLIIQQGLVDGVFLVRDSQSNPKTFVLSMSHGQKIKHFQIIPVEDDGEMFHTLDDGHTRFTDLIQLVEFYQLNKGVLPCKLKHYC", "VAL": "no binding"}
{"BINDER": "SH2 domain of Hck (other, UniProt P08631 144-241, looked up, domain: SH2 domain) WFFKGISRKDAERQLLAPGNMLGSFMIRDSETTKGSYSLSVRDYDPRQGDTVKHYKIRTLDNGGFYISPRSTFSTLQELVDHYKKGNDGLCQKLSVPC", "VAL": "no binding"}
{"BINDER": "SH2 domain of Stap2 (other, UniProt Q9UGK3 133-248, looked up, domain: SH2 domain) YMMSEVLAKEEARRALETPSCFLKVSRLEAQLLLERYPECGNLLLRPSGDGADGVSVTTRQMHNGTHVVRHYKVKREGPKYVIDVEQPFSCTSLDAVVNYFVSHTKKALVPFLLDE", "VAL": "no binding"}
{"BINDER": "SH2 domain of Csk (other, UniProt P41240 82-171, looked up, domain: SH2 domain) WFHGKITREQAERLLYPPETGLFLVRESTNYPGDYTLCVSCDGKVEHYRIMYHASKLSIDEEVYFENLMQLVEHYTSDADGLCTRLIKPK", "VAL": "no binding"}
{"BINDER": "SH2 domain of Matk (other, UniProt P42679 122-211, looked up, domain: SH2 domain) WFHGKISGQEAVQQLQPPEDGLFLVRESARHPGDYVLCVSFGRDVIHYRVLHRDGHLTIDEAVFFCNLMDMVEHYSKDKGAICTKLVRPK", "VAL": "no binding"}
{"BINDER": "SH2 domain of Nck1 (other, UniProt P16333 282-376, looked up, domain: SH2 domain) WYYGKVTRHQAEMALNERGHEGDFLIRDSESSPNDFSVSLKAQGKNKHFKVQLKETVYCIGQRKFSTMEELVEHYKKAPIFTSEQGEKLYLVKHL", "VAL": "no binding"}
{"BINDER": "SH2 domain of Brdg1 (other, UniProt Q9ULZ2 177-280, looked up, domain: SH2 domain) ACFYTVSRKEATEMLQKNPSLGNMILRPGSDSRNYSITIRQEIDIPRIKHYKVMSVGQNYTIELEKPVTLPNLFSVIDYFVKETRGNLRPFICSTDENTGQEPS", "VAL": "no binding"}
{"BINDER": "SH2 domain of Fyn (other, UniProt P06241 149-246, looked up, domain: SH2 domain) WYFGKLGRKDAERQLLSFGNPRGTFLIRESETTKGAYSLSIRDWDDMKGDHVKHYKIRKLDNGGYYITTRAQFETLQQLVQHYSERAAGLCCRLVVPC", "VAL": "no binding"}
{"BINDER": "SH2 domain of Eat2 (other, UniProt O14796 5-101, looked up, domain: SH2 domain) YYHGRLTKQDCETLLLKEGVDGNFLLRDSESIPGVLCLCVSFKNIVYTYRIFREKHGYYRIQTAEGSPKQVFPSLKELISKFEKPNQGMVVHLLKPI", "VAL": "no binding"}
{"BINDER": "SH2 domain of SHC3 (other, UniProt Q92529 499-590, looked up, domain: SH2 domain) WYQGEMSRKEAEGLLEKDGDFLVRKSTTNPGSFVLTGMHNGQAKHLLLVDPEGTIRTKDRVFDSISHLINHHLESSLPIVSAGSELCLQQPV", "VAL": "no binding"}
{"BINDER": "SH2 domain of Fes (other, UniProt P07332 460-549, looked up, domain: SH2 domain) WYHGAIPRAEVAELLVHSGDFLVRESQGKQEYVLSVLWDGLPRHFIIQSLDNLYRLEGEGFPSIPLLIDHLLSTQQPLTKKSGVVLHRAV", "VAL": "no binding"}
{"BINDER": "SH2 domain of Fgr (other, UniProt P09769 144-241, looked up, domain: SH2 domain) WYFGKIGRKDAERQLLSPGNPQGAFLIRESETTKGAYSLSIRDWDQTRGDHVKHYKIRKLDMGGYYITTRVQFNSVQELVQHYMEVNDGLCNLLIAPC", "VAL": "no binding"}
{"BINDER": "SH2 domain of SHC2 (other, UniProt P98077 487-578, looked up, domain: SH2 domain) WYHGRMSRRAAERMLRADGDFLVRDSVTNPGQYVLTGMHAGQPKHLLLVDPEGVVRTKDVLFESISHLIDHHLQNGQPIVAAESELHLRGVV", "VAL": "no binding"}
{"BINDER": "SH2 domain of Lck (other, UniProt P06239 127-224, looked up, domain: SH2 domain) WFFKNLSRKDAERQLLAPGNTHGSFLIRESESTAGSFSLSVRDFDQNQGEVVKHYKIRNLDNGGFYISPRITFPGLHELVRHYTNASDGLCTRLSRPC", "VAL": "no binding"}
